Numbers sourced from ChEMBL document CHEMBL3044739.

What IC50 was measured for each of the following?
assay: Cytotoxicity against Homo sapiens (human) HuCCa1 cells assessed as survival after 3 days by crystal violet staining; assay type: functional, cell-based; settings: HuCC-A1, 72 h

## Input So what does the record say about IC50 for COc1cc2c(cc1OC)C(/C(=N/NC(N)=S)c1ccccc1)N(S(=O)(=O)c1ccc([N+](=O)[O-])cc1)CC2 (stereo not drawn) ?
## Output > 50 µg/mL

## Input Request: COc1cc2c(cc1OC)C(/C(C)=N/NC(N)=S)N(S(=O)(=O)c1ccc(C)cc1)CC2 (stereo not drawn)
## Output > 50 µg/mL

## Input Request: COc1ccc(S(=O)(=O)N2CCc3cc(OC)c(OC)cc3C2/C(=N/NC(N)=S)c2ccccc2)cc1 (stereo not drawn)
## Output > 50 µg/mL

* * *

What IC50 was measured for each of the following?
system: MOLT-3; experiment: Cytotoxicity against Homo sapiens (human) MOLT3 cells assessed as survival after 3 days by crystal violet staining; assay type: functional, cell-based; details: MOLT-3, 72 h

## Input So what does the record say about IC50 for COc1cc2c(cc1OC)C(C(=O)c1ccccc1)N(S(=O)(=O)c1ccc(C)cc1)CC2 (stereo not drawn) ?
## Output > 50 µg/mL

## Input Request: COc1cc2c(cc1OC)C(/C(C)=N/NC(N)=S)N(S(=O)(=O)c1ccc(C)cc1)CC2 (stereo not drawn)
## Output > 50 µg/mL

## Input Request: COc1cc2c(cc1OC)C(/C(=N/NC(N)=S)c1ccccc1)N(S(=O)(=O)c1ccc([N+](=O)[O-])cc1)CC2 (stereo not drawn)
## Output > 50 µg/mL
